molecular target: Col type II (Homo sapiens, UniProt P02458); experiment: Biosensor analysis of CBD(151-318) and single-site mutants binding to Col type II; conditions: approximate binding ratio
Sequence (P02458 182-1241 limits assumed): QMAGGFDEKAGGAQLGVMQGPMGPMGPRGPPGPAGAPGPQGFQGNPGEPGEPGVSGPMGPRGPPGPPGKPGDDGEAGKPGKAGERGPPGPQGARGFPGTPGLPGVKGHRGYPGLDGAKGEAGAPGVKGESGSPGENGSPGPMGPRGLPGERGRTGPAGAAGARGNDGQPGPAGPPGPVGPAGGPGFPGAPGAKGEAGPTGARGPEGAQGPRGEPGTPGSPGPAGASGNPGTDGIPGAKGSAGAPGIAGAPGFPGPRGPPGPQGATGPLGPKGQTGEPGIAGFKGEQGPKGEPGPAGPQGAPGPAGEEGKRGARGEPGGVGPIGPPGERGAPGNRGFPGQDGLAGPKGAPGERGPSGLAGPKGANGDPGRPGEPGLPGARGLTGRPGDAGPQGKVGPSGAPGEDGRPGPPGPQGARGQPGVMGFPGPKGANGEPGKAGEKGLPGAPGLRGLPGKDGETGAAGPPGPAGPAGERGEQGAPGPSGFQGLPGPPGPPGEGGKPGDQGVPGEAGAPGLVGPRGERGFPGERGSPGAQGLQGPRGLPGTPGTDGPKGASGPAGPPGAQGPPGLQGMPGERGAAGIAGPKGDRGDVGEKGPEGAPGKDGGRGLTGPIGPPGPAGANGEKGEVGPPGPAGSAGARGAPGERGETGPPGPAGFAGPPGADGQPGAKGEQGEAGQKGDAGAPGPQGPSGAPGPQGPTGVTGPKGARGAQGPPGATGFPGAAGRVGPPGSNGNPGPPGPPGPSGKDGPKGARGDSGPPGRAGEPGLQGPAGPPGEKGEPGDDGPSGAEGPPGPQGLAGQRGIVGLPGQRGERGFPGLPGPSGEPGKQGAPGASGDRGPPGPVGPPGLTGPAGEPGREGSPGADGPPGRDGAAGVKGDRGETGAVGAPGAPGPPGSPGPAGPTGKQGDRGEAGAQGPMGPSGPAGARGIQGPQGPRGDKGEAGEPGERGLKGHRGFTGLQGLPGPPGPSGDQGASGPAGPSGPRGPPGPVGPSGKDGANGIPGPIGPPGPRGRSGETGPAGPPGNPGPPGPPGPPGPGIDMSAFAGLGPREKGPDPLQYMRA
Parameter: BR. Scope: all listed entries.
// return just the number, without any unit appended

{"molecule": "232N→A (protein) ITSGNKSTNVTVHKSEAGTSSVFYYKTGDMLPEDTTHVRWFLNINNEKSYVSKDITIKDQIQGGQQLDLSTLNINVTGTHSAYYSGQSAITDFEKAFPGSKITVDNTKNTIDVTIPQGYGSYNSFSINYKTKITNEQQKEFVNNSQAWYQEHGKEEVNGKSFNHTVHN", "BR": 12}

# ---- query molecule ----
[ask] Output BR of 193N→K (protein) ITSGNKSTNVTVHKSEAGTSSVFYYKTGDMLPEDTTHVRWFLKINNEKSYVSKDITIKDQIQGGQQLDLSTLNINVTGTHSNYYSGQSAITDFEKAFPGSKITVDNTKNTIDVTIPQGYGSYNSFSINYKTKITNEQQKEFVNNSQAWYQEHGKEEVNGKSFNHTVHN
[reply] 12

Values compiled from patent US20020102262A1.
